Target: hCRTH2 receptor (Homo sapiens, UniProt Q9Y5Y4)
Construct: expressed in transfected cells; host or cells: HEK293
Sequence (Q9Y5Y4 1-395): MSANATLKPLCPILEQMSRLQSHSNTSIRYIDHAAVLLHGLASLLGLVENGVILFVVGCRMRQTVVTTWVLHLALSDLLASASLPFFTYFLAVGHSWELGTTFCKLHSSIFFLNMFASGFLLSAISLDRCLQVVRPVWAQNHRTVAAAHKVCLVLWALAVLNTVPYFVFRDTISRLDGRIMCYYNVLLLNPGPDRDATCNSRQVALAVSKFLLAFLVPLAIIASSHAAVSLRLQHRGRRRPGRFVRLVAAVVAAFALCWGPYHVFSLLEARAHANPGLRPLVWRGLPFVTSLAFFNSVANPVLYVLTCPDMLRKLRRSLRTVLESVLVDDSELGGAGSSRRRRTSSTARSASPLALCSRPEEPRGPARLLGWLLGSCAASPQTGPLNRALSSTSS
Assay: Radioligand displacement assay (3H-PGD2) on hCRTH2 receptor membranes
Assay type: binding
Conditions: antagonistic activity, 3H-PGD2 radioligand displacement, HEK293-hCRTH2 membranes
pIC50: −log10 of the molar value.
measurement name: pIC50

compound	measurement name	observed
CC(C)COCCC(=O)N1CCc2ccccc2C1c1cc(Cl)ccc1OCC(=O)O (racemic) [Example 450]	pIC50	6.39
Cc1noc(C)c1COC(=O)N1CCc2c(ccc(F)c2F)[C@H]1c1cc(Cl)ccc1OCC(=O)O [Example 307]	pIC50	8.48
CC(C)[C@@H]1C[C@H]1C(=O)N1CCc2ccccc2[C@H]1c1cc(Cl)ccc1OCC(=O)O (single isomer, unassigned) [Example 465]	pIC50	7.27
Cc1nn(CCC(=O)N2Cc3ccccc3C2c2cc(Cl)ccc2OCC(=O)O)c2cc(F)ccc12 (single isomer, unassigned) [Example 541]	pIC50	6.06
Cc1cc(COC(=O)N2CCc3c(ccc(F)c3F)[C@H]2c2cc(Cl)ccc2OCC(=O)O)n(C)n1 [Example 313]	pIC50	8.63
Cc1cnn(COC(=O)N2CCc3c(ccc(F)c3F)[C@H]2c2cc(Cl)ccc2OCC(=O)O)c1 [Example 317]	pIC50	7.83
Cc1cc2ccccc2n1CCC(=O)N1CCc2ccccc2C1c1cc(Cl)ccc1OCC(=O)O (racemic) [Example 446]	pIC50	6.76
COc1ccc2ccn(CCC(=O)N3CCc4ccccc4C3c3cc(Cl)ccc3OCC(=O)O)c2n1 (racemic) [Example 374]	pIC50	7.91

[P] O=C(O)COc1ccc(Cl)cc1C1c2cc(F)ccc2CCN1C(=O)OCc1ccccc1 (racemic) [Example 365]
[Q] O=C(O)COc1ccc(Cl)cc1[C@@H]1c2ccc(F)cc2CCN1C(=O)OCc1noc2ccccc12 [Example 348]
[R] O=C(O)COc1ccc(Cl)cc1[C@@H]1c2ccc(F)c(F)c2CCN1C(=O)OCc1nc2ccccc2s1 [Example 319]
[S] O=C(O)COc1ccc(Cl)cc1C1c2ccc(F)cc2CCN1C(=O)CCCc1ccccc1F (racemic) [Example 436]
[T] O=C(O)COc1ccc(Cl)cc1C1c2ccc(F)c(F)c2CN1C(=O)OCc1ccccc1 (racemic) [Example 559]
Your job: order these 5 records by pIC50, ascending. Answer by writing out the labels in the requested order. P, T, S, R, Q

[1] O=C(O)COc1ccc(Cl)cc1C1c2ccccc2CCN1C(=O)COc1ccccc1 (racemic) [Example 409]
[2] O=C(O)COc1ccc(Cl)cc1C1c2ccccc2CCN1C(=O)CCn1ccc2c(F)cccc21 (racemic) [Example 387]
Thinking about recorded pIC50 values, which is higher, 1 or 2 ? Field: selected label. Fill in the label of the entry you choose. 2
(2: 7.44, 1: 7.13)

---

target: hCRTH2 receptor (Homo sapiens, UniProt Q9Y5Y4); construct: expressed in transfected cells; host or cells: HEK293; experiment: Radioligand displacement assay (3H-PGD2) on hCRTH2 receptor membranes; type: binding; conditions: antagonistic activity, 3H-PGD2 radioligand displacement, HEK293-hCRTH2 membranes
pIC50: −log10 of the molar value.
measurement name: pIC50

Consider the following illustrative entries.
compound	pIC50
O=C(O)COc1ccc(Cl)cc1C1c2ccccc2CCN1C(=O)COc1cccnc1Cl (racemic) [Example 471]	7.06
O=C(O)COc1ccc(Cl)cc1C1c2ccccc2CCN1C(=O)NCc1ccc(F)cc1 (racemic) [Example 494]	7.77
O=C(O)COc1ccc(Cl)cc1C1c2ccccc2CCN1C(=O)[C@@H]1C[C@H]1c1ccc(F)cc1 (mixture of isomers) [Example 418]	7.79
N#Cc1ccc2c(ccn2CCC(=O)N2CCc3ccccc3C2c2cc(Cl)ccc2OCC(=O)O)c1 (racemic) [Example 371]	7.27
O=C(O)COc1ccc(Cl)cc1C1c2ccccc2CN1C(=O)CCn1ncc2cccc(Cl)c21 (single isomer, unassigned) [Example 536]	6.96

[1] O=C(O)COc1ccc(Cl)cc1C1c2ccccc2CCN1C(=O)CCn1ccc2ccc(Cl)cc21 (racemic) [Example 386]
[2] O=C(O)COc1ccc(Cl)cc1C1c2ccccc2CN1C(=O)CCn1ncc2c(F)cccc21 (single isomer, unassigned) [Example 547]
[3] O=C(O)COc1ccc(Cl)cc1C1c2ccccc2CCN1C(=O)[C@@H]1C[C@H]1c1ccccc1C(F)(F)F (mixture of isomers) [Example 423]
Could you please sort these 3 entries by pIC50 from high to low? Please write the labels in the order that was asked for. 3, 1, 2

[1] O=C(O)COc1ccc(Cl)cc1C1c2cccc(F)c2CN1C(=O)OCc1ccccc1 (racemic) [Example 501]
[2] COc1ccc2c(ccn2CCC(=O)N2CCc3ccccc3C2c2cc(Cl)ccc2OCC(=O)O)c1 (racemic) [Example 459]
Lab note: record which item had the higher pIC50, 1 or 2 . Write the label of whichever entry you select. 1
(1: 8.09, 2: 6.80)

[A] Cc1[nH]c2ccccc2c1CCC(=O)N1Cc2ccccc2C1c1cc(Cl)ccc1OCC(=O)O (racemic) [Example 510]
[B] Cc1ncsc1CCOC(=O)N1CCc2cc(F)ccc2[C@H]1c1cc(Cl)ccc1OCC(=O)O [Example 325]
Lower value for measured pIC50? Options: A , B Write the label of whichever entry you select. A
(A: 6.74, B: 7.67)

---

biological target: hCRTH2 receptor (Homo sapiens, UniProt Q9Y5Y4); construct: expressed in transfected cells; host or cells: HEK293; test: Radioligand displacement assay (3H-PGD2) on hCRTH2 receptor membranes; assay type: binding; conditions: antagonistic activity, 3H-PGD2 radioligand displacement, HEK293-hCRTH2 membranes
pIC50: −log10 of the molar value.
measurement name: pIC50

Some compounds with known pIC50 results, for comparison:
compound	pIC50
O=C(O)COc1ccc(Cl)cc1C1c2ccccc2CCN1C(=O)CCn1nc(Cl)c2ccccc21 (racemic)	8.07
O=C(O)COc1ccc(Cl)cc1[C@@H]1c2ccccc2CCN1C(=O)OCCc1ccccc1	8.50

[1] O=C(O)COc1ccc(Cl)cc1C1c2ccccc2CCN1C(=O)NCCc1ccccc1 (racemic)
[2] O=C(O)COc1ccc(Cl)cc1C1c2ccccc2CCN1C(=O)COc1ccc(C(F)(F)F)nc1 (racemic)
Kindly identify the item with the lower pIC50 figure among these two: 1 and 2 Your answer should be the label attached to the chosen record. 2
(2: 6.84, 1: 7.65)

[a] O=C(O)COc1ccc(Cl)cc1C1c2ccccc2CN1C(=O)CCN1CCc2ccccc21 (racemic)
[b] O=C(O)COc1ccc(Cl)cc1C1c2ccc(F)cc2CCN1C(=O)COCc1ccccc1Cl (racemic)
[c] Cc1nn(CCC(=O)N2CCc3cc(F)ccc3[C@H]2c2cc(Cl)ccc2OCC(=O)O)c2c(F)cccc12
Sort the 3 compounds by pIC50; largest first, smallest last. Lab note: final answer is the ordered label list. b, a, c
(b: 8.28, a: 7.41, c: 6.56)

---

Biological target: hCRTH2 receptor (Homo sapiens, UniProt Q9Y5Y4)
Construct: expressed in transfected cells; host or cells: HEK293
Sequence (Q9Y5Y4 1-395): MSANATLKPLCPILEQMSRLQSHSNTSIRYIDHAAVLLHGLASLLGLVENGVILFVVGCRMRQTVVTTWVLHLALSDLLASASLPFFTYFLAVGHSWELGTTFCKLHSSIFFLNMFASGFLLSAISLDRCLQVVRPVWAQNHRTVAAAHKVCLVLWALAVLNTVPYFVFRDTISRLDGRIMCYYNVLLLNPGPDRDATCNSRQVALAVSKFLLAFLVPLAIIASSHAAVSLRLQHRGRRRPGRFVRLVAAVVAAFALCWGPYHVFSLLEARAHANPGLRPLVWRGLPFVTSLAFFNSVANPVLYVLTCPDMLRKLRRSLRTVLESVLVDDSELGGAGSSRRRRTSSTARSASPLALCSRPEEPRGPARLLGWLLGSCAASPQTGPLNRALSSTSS
Assay: Radioligand displacement assay (3H-PGD2) on hCRTH2 receptor membranes
Format: binding
Details: antagonistic activity; 3H-PGD2 displacement on HEK293-hCRTH2 membrane fragments
measurement name: IC50 (nM)

compound	unit descriptor	observed
O=C(O)COc1ccc(Cl)cc1C1c2cccc(F)c2CCN1C(=O)C#Cc1ccccc1 (racemic)	nM	196
Cn1cc(CC(=O)N2CCc3ccccc3C2c2cc(F)ccc2OCC(=O)O)c2ccccc21 (racemic)	nM	314

[a] Cc1ccc(COC(=O)N2CCc3ccccc3C2c2cc(Cl)ccc2OCC(=O)O)c(C)c1 (racemic)
[b] O=C(O)COc1ccc(F)cc1C1c2ccccc2CCN1C(=O)Cc1noc2ccccc12 (racemic)
[c] COc1ccc2c(c1)C(c1cc(F)ccc1OCC(=O)O)N(C(=O)OCc1ccccc1)CC2 (racemic)
# ascending order, key=IC50 Arrange the labels as the request states and list them. a, c, b
(a: 2.87 nM, c: 19.9 nM, b: 369 nM)

[P] COc1ccc2c(CC(=O)N3CCc4ccccc4C3c3cc(Cl)ccc3OCC(=O)O)coc2c1 (racemic)
[Q] O=C(O)COc1ccc(Cl)cc1C1c2ccccc2CCN1C(=O)CCc1nccn1-c1ccccc1 (racemic)
Lowest IC50? choose P or Q # reply format: chosen label P
(P: 2.86 nM, Q: 422 nM)

[I] Cc1ccccc1C1CC1C(=O)N1CCc2ccccc2C1c1cc(Cl)ccc1OCC(=O)O (single isomer, unassigned) [Example 153]
[II] O=C(O)COc1ccc(F)cc1C1c2ccccc2CCN1C(=O)Cc1ccc2cccnc2c1 (racemic)
Problem: Given the entries I and II , determine which has the lower reported IC50. State your choice using its label. I
(I: 123 nM, II: 287 nM)

[P] O=C(O)COc1ccc(F)cc1C1c2ccccc2CCN1C(=O)COCc1ccc(Cl)cc1 (racemic)
[Q] O=C(O)COc1ccc(Cl)cc1C1c2ccccc2CCN1C(=O)OCc1cccc(C(F)(F)F)c1 (racemic)
[R] O=C(O)COc1ccc(Cl)cc1C1c2ccccc2CCN1C(=O)Cc1c[nH]c2ccc(F)cc12 (racemic)
[S] O=C(O)COc1ccc(F)cc1C1c2ccccc2CCN1C(=O)CNS(=O)(=O)c1ccc(F)c(F)c1 (racemic)
Arrange these 4 compounds in increasing order of IC50. Please respond by ranking the labels in the order requested. Q, P, R, S
(Q: 18.6 nM, P: 33.3 nM, R: 113 nM, S: 644 nM)

[a] O=C(O)COc1ccc(F)cc1C1c2cccc(Cl)c2CCN1C(=O)OCc1ccccc1 (racemic)
[b] O=C(O)COc1ccc(Cl)cc1C1c2cccc(F)c2CCN1C(=O)[C@@H]1C[C@H]1c1ccccc1 (relative stereo)
Lab notebook, comparison: a versus b , higher IC50 goes to which? Label of pick, please. b
(b: 32.5 nM, a: 20.8 nM)

[a] O=C(O)COc1ccc(Cl)cc1C1c2cccc(F)c2CCN1C(=O)CCCc1ccccc1 (racemic)
[b] O=C(O)COc1ccc(F)cc1C1c2ccccc2CCN1C(=O)[C@@H]1C[C@H]1c1ccccc1 (mixture of isomers)
[c] O=C(O)COc1ccc(-c2noc(=S)[nH]2)cc1C1c2ccccc2CCN1C(=O)OCc1ccccc1 (racemic)
[d] O=C(O)COc1ccc(F)cc1C1c2ccccc2CCN1C(=O)CNS(=O)(=O)c1ccccc1F (racemic)
Order field: IC50 | Direction: descending (largest first) Sort and list the labels as requested. d, c, a, b

[1] Cc1ccccc1OCC(=O)N1CCc2ccccc2C1c1cc(F)ccc1OCC(=O)O (racemic)
[2] O=C(O)COc1c(F)cc(F)cc1C1c2ccccc2CCN1C(=O)OCc1ccccc1 (racemic)
[3] O=C(O)COc1ccc(F)cc1C1c2ccccc2CCN1C(=O)CCc1ccccc1Cl (racemic)
Rank order required: IC50, descending. Response field: labels, in requested order. 2, 1, 3
(2: 196 nM, 1: 119 nM, 3: 48 nM)

[a] Cc1cccc(COCC(=O)N2CCc3ccccc3C2c2cc(F)ccc2OCC(=O)O)c1 (racemic)
[b] O=C(O)COc1ccc(Cl)cc1C1c2ccccc2CCN1C(=O)OCc1c(Cl)cccc1Cl (racemic)
[c] O=C(O)COc1ccc(F)cc1C1c2ccc(F)cc2CCN1C(=O)OCc1ccccc1 (racemic)
[d] O=C(O)COc1ccc(F)cc1C1c2ccccc2CCN1C(=O)Cc1ccc2c(c1)OCCO2 (racemic)
Ascending by IC50, please: list the compounds accordingly. Use the labels to give the ranking in the order requested. c, b, a, d
